tested on: DIV14; test: qHTS profiling for inhibitors of Plasmodium falciparum proliferation (AID 504749); note: nearly all actives have a fitted effect of over 60% in size; conditions: P. falciparum in erythrocytes, SYBR Green DNA, 72 h; series mostly up to 28.7 µM
Inconclusive results are not listed. Calls of active or inactive are those of the source. Calls come from the whole dose curve; as a rule, active = well fitted inhibition curve with a large enough effect; inconclusive = small, poorly fitted or top-dose-only effect; inactive = flat fitted curve, though single readings scatter.
Parameter call: string, one of active, inactive

Example entries begin here.
State the result this test recorded for CC(N)Cc1ccc(O)cc1 (configuration not stated) .
inactive

Recorded call for CCCCNCC(O)c1ccc(O)cc1 (configuration not stated) ?
inactive

# fetch the recorded call for COc1ccc(OC)c(C(O)C(C)N)c1 (configuration not stated) here
inactive

Others:
# outcome recorded in this test, key = `CC[N+](C)(CC)CCOC(=O)C(O)(c1ccccc1)c1ccccc1`
inactive

The reported numbers originate from PubChem BioAssay (NCATS).
